Value source: patent US11964052B2

Property: Encapsulation Efficiency; scope: individual molecules
assay: Encapsulation efficiency of lipid nanoparticles, Quant-it Ribogreen RNA quantification assay; format: physicochemical; conditions: LNP with mRNA
Numeric answer only, unit % assumed.

CCCCCCCCC(CCCCCC)COC(=O)CCOCC(CN(CCCCCC)CCN(CCO)C1CCCCCC1)OCCC(=O)OCC(CCCCCC)CCCCCCCC (stereo not shown) [Compound 107] ... 93.66
CCCCCCCCCCCCOCC(CN(C)CCN(CCO)C1CCC1)OCCCCCCCCCCCC (stereo not shown) [Compound 39] ... 94.7
CCCCCCCCCCCCOCC(CN(CCCCCC(=O)OCC(CCCCCC)CCCCCCCC)CCN(CCO)C1CCCC1)OCCCCCCCC (stereo not shown) [Compound 35] ... 96.80
CCCCCCCCC(CCCCCC)CC(=O)OCC(CCCCN(CCN(CCO)CCCCCC)C1CCC1)COC(=O)CC(CCCCCC)CCCCCCCC (stereo not shown) [Compound 111] ... 92.54
CCCCC/C=C\C/C=C\CCCCCCCC(=O)OCC(CCCCN(CCO)C1CCCC1)COC(=O)CC(CCCCCC)CCCCCCCC (stereo not shown) [Compound 90] ... 93.02
CCCCCCCCCCCCOCC(CN(CCCCCC(=O)OCC(CCCCCC)CCCCCCCC)CCN(CCO)C1CCCCCC1)OCCCCCC (stereo not shown) [Compound 26] ... 93.30

Request: // lookup Encapsulation Efficiency for CCCCCCCCCCCCCCCC(=O)OCC(CCCCN(CCO)C1CCCCC1)COC(=O)CC(CCCCCC)CCCCCCCC (stereo not shown) [Compound 86]
Response: 92.81

---

test: Apparent pKa of LNP formulations, TNS fluorescence assay; type: physicochemical; details: LNP cationic lipid/DSPC/cholesterol/DMG-PEG 50/10/38.5/1.5 mol %, pH 3 to 9
Property measured: Apparant Pka

CCCCCCCCCCCCCCCC(=O)OCC(CCCCN(CCO)C1CCC1)COC(=O)CC(CCCCCC)CCCCCCCC (stereo not shown) ... 6.997
CCCCCCCCCCCCOCC(O)CN(CCO)CCCCCC(=O)OCC(CCCCCC)CCCCCCCC (stereo not shown) ... 7.089
CCCCCCCCCCC(=O)OCC(CCCCN(CCO)C1CCCCC1)COC(=O)CC(CCCCCC)CCCCCCCC (stereo not shown) ... 6.438
CCCCCCCCCCCCOCC(CN(CCCCCC(=O)OCC(CCCCCC)CCCCCCCC)CCN(CCO)C1CCC1)OCCCCCCCCCCCC (stereo not shown) ... 5.905
CCCCCCCCC(CCCCCC)CC(=O)OCC(CCCCN(CCN(CCO)C1CCC1)C1CCC1)COC(=O)CC(CCCCCC)CCCCCCCC (stereo not shown) ... 5.927

Request: Return reported Apparant Pka; argument: CCCCCCCCC(CCCCCC)COC(=O)CCOCC(CN(CCC)CCN(CCO)C1CCCCCC1)OCCC(=O)OCC(CCCCCC)CCCCCCCC (stereo not shown)
Response: 6.035

Request: Try the molecule CCCCCCCCC(CCCCCCCC)CNC(=O)CCOC(COCCC(=O)OCC(CCCCCCCC)CCCCCCCC)CN(C)CCN(CCO)C1CCC1 (stereo not shown)
Response: 7.219

---

assay: Encapsulation efficiency of lipid nanoparticles, Quant-it Ribogreen RNA quantification assay; assay type: physicochemical; settings: LNP with mRNA
Property measured: Encapsulation Efficiency (%)
Number only, in %; omit the unit.

// solved cases for Encapsulation Efficiency follow
CCCCCCCCCCC(=O)OCC(CCCCN(CCO)C1CCCC1)COC(=O)CC(CCCCCC)CCCCCCCC (stereo not shown) ... 93.44
CCCCCCCCCCCCOCC(CN(C)CCN(CCO)C1CCCCC1)OCCCCCCCCCCCC (stereo not shown) ... 93.4
CCCCCCCCCCCCCCCCCCOCC(CN(CCCCCC(=O)OCCCCCCCCCC)CCN(CCO)C1CCC1)OCCCCCC (stereo not shown) ... 95.9

Request: Record request: Encapsulation Efficiency value, item CCCCCCCCCC(CCCCC)COC(=O)CCOCC(CN(CCO)C1CCC1)OCCC(=O)OCC(CCCCCC)CCCCCCCC (stereo not shown)
Response: 92.04

Request: Check CCCCCCCCC(CCCCCC)COC(=O)CCOCC(CN(CCC)CCN(CCO)C1CCCCCC1)OCCC(=O)OCC(CCCCCC)CCCCCCCC (stereo not shown) too.
Response: 93.17

Request: Next: CCCCCCCCC(CCCCCCCC)COC(=O)CCOCC(CN(C)CCN(CCO)C1CC1)OCCC(=O)OCC(CCCCCCCC)CCCCCCCC (stereo not shown)
Response: 93.32

Request: Input CCCCCCCCC(CCCCCCCC)CNC(=O)CCOCC(CN(C)CCO)OCCC(=O)NCC(CCCCCCCC)CCCCCCCC (stereo not shown)
Response: 90.4
